Source of measurements: ChEMBL document CHEMBL3108751

Target or test system: Kallikrein-7 (Homo sapiens, UniProt P49862)
Sequence (P49862 whole entry): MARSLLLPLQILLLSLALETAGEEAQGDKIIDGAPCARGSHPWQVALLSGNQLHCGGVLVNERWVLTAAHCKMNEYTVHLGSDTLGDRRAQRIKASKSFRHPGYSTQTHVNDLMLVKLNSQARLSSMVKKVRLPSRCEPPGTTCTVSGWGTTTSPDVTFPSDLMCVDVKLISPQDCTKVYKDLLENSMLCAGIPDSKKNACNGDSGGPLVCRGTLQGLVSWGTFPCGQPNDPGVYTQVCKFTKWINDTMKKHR
Experiment description: Competitive inhibition of human recombinant KLK7 expressed in baculovirus-infected insect cell system using Abz-KLYSSKQ-Eddnp as substrate incubated for 5 mins prior to substrate addition by Lineweaver-Burk plot analysis
Attribute measured: pKi
Just so you know, pKi here is -log10 of the concentration in molar units; reply with that number alone.

Q: Tell me the measured pKi of CC(C)(C)OC(=O)N1CCC[C@H]1C(=O)O[C@@H]1CO[C@H]2[C@@H]1OC[C@H]2OCc1ccccc1 , please.
Result: 4.81

Q: Okay, and CC(C)(C)OC(=O)N[C@H](COCc1ccccc1)C(=O)O[C@@H]1CO[C@H]2[C@@H]1OC[C@H]2OCc1ccccc1 ?
Result: 5.64

Q: Then this compound: CC(C)(C)OC(=O)N[C@@H](CCCCNC(=O)OCc1ccccc1)C(=O)O[C@@H]1CO[C@H]2[C@@H]1OC[C@H]2OCc1ccccc1
Result: 5.85

Q: Note, next up: Cc1ccc(S(=O)(=O)n2cnc(C[C@H](NC(=O)OC(C)(C)C)C(=O)N[C@H]3CO[C@H]4[C@@H]3OC[C@H]4OCc3ccccc3)c2)cc1
Result: 5.36

Q: Do the same for O=C(N[C@H]1CO[C@H]2[C@@H]1OC[C@H]2OCc1ccccc1)/C(=C/c1cccs1)NC(=O)c1ccccc1 (stereo in doubt) please
Result: 5.74

Q: Please do the same for CSCC[C@H](NC(=O)OC(C)(C)C)C(=O)O[C@@H]1CO[C@H]2[C@@H]1OC[C@H]2OCc1ccccc1 as well.
Result: 4.74

Q: Could you do the same for CC(C)(C)OC(=O)N[C@H](CCCN/C(=N\C(=O)OCc1ccccc1)NC(=O)OCc1ccccc1)C(=O)N[C@H]1CO[C@H]2[C@@H]1OC[C@H]2OCc1ccccc1 , please?
Result: 5.62
